System: Fibroblast
Test: Incucyte cell viability with human fibroblast; further: unitless GR value; below 1 slowed growth and below 0 cell loss
Type: toxicity, cell-based
Settings: 6 h, 10 µM, compound concentration 10 uM, replicate number 1
MEASURED PROPERTY: Growth Rate
# answer = number (no unit)

Example compounds with recorded Growth Rate:
Find the measured Growth Rate of CCCN1C(=O)c2ccc(Cl)cc2Nc2ncccc21 and report it. 0.56

Return the recorded Growth Rate value; entry: CC1(C)CC(=O)c2c(SCCO)sc(-c3nccs3)c2C1 -1

// Input: COc1cc2c(NC3CCN(C(C)C)CC3)nc(C3CCCCC3)nc2cc1OCCCN1CCCC1 . Output its Growth Rate only. -0.16

Specify measured Growth Rate for COc1cc2nc(C)nc(NC3(c4ccccc4)CC3)c2cc1OC . 0.99

For the compound COc1ccc(COc2ccc(Cc3cnc(N)nc3N)cc2OC)cc1 [GW632580X] , give its reported Growth Rate. 0.69

More entries:
Return value of Growth Rate for input COCCNc1cc(NC(=O)N2CCCc3cc(CN4CCN(C)CC4=O)c(C=O)nc32)ncc1C#N [FGF401] , no commentary. 0.08

Report measured Growth Rate; entry is CCC(C)(C)CC[C@H](NC(=O)N1CCOCC1)C(=O)NC1(C#N)CCN(C)CC1 0.76

Read the entry Nc1ncc2c(n1)-c1c([nH]c3ccc(C4CC4)cc13)CCCC2 and write its reported Growth Rate. 0.08

For the compound COc1ccc(-n2nc(C(F)(F)F)cc2-c2ccc(Cl)cc2)cc1 [SC-560] , report Growth Rate. 0.63

Tell me measured Growth Rate for COP(=O)(CCC(N)C(=O)O)Oc1cccc(CC(=O)O)c1 (stereo not given) please. 0.49
